# key: entry, value: pIC50
Molecular target: BRD4 Bromodomain 2 (BRD4 BD2) (Homo sapiens, UniProt O60885)
Construct: 333-460 were cloned, expressed, and purified to homogeneity
Experiment: AlphaScreen binding assay, BRD4 BD2
Settings: His-tagged BRD4 BD2 100 nM, biotinylated H4 (1-21) K5/8/12/16 tetra-acetylated peptide 100 nM, compounds listed under IC50 range headings
pIC50: −log10 of the molar value.

Previously resolved entries follow.
# input What does the data say about its pIC50? Entry: CC(=O)N1c2ccc(-c3cnn(C4CC4)c3)c(Oc3ncccc3C(F)(F)F)c2CC[C@@H]1C [I-86]
# output > 7.30

# input Same question for COC(=O)N1c2ccc(-c3cnn(C4CC4)c3)c(OCCC(F)(F)F)c2CC[C@@H]1C [I-13] please.
# output 6.30 to 7.30

# input CC(=O)N1c2ccc(-c3cnn(C4CC4)c3)c(OC3CN(C(C)C)C3)c2CC[C@@H]1C [I-254] , same question.
# output 6.30 to 7.30

# input Please answer likewise for COC(=O)N1c2ccc(-c3cnn(C4CNC4)c3)c(Oc3ccccc3C#N)c2CC[C@@H]1C [I-138]
# output > 7.30

Continuing:
# input // returns reported pIC50 for input CC(=O)N1c2ccc(-c3cnn(C4CC4)c3)c(OC3CC(F)(F)C3)c2CC[C@@H]1C [I-51]
# output > 7.30

# input Thanks! And COC(=O)N1c2ccc(-c3cnn(CCO)c3)c(OCC(=O)N3CCCC3)c2CC[C@@H]1C [I-465] ?
# output 6.30 to 7.30

# input What do you have for CCCOc1c(-c2cccc(NS(C)(=O)=O)c2)ccc2c1CC[C@H](C)N2C(C)=O [I-490] ?
# output 6.30 to 7.30

# input Also need CC(=O)N1c2ccc(-c3ccc(N(C)S(C)(=O)=O)cc3)c(OCC(=O)N(C)C)c2CC[C@@H]1C [I-503] , thanks.
# output 6.30 to 7.30

# input // next record COC(=O)N1c2ccc(-c3cnn(C4CC4)c3)c(OC3CN(C(=O)OC(C)(C)C)C3)c2CC[C@@H]1C [I-58]
# output ≤ 6.30

# input Again, but for COC(=O)N1c2ccc(-c3cnn(CC(C)(C)O)c3)c(Oc3ncc(F)cn3)c2CC[C@@H]1C [I-575]
# output 6.30 to 7.30

# input Let us now turn to CC(=O)N1c2ccc(-c3cnn(C4CC4)c3)c(Oc3nc4ccccc4o3)c2CC[C@@H]1C [I-78]
# output 6.30 to 7.30

# input Again, but for CC(=O)N1c2cccc(OCC3CCCC3)c2CC[C@@H]1C [I-607]
# output ≤ 6.30

# input Now the compound CC(=O)N1c2ccc(-c3cnn(C4CCNCC4)c3)c(Oc3cc(C4CC4)ncn3)c2CC[C@@H]1C [I-517]
# output 6.30 to 7.30

# input Same question, CC(=O)N1c2ccc(-c3cnn(C4CC4)c3)c(Oc3nc(C)cc(C)n3)c2CC[C@@H]1C [I-90] this time
# output 6.30 to 7.30

# input Would you mind doing CC(=O)N1c2ccc(-c3cnn(C4COC4)c3)c(OC[C@H]3CCNC3)c2CC[C@@H]1C [I-601] as well?
# output 6.30 to 7.30

# input Input CC(=O)N1c2ccc(-c3cccc(C(=O)N4CCOCC4)c3)c(OCC(=O)N(C)C)c2CC[C@@H]1C [I-489]
# output ≤ 6.30

# input Okay, and COC(=O)N1c2ccc(-c3cnn(C4CC4)c3)c(OCC(F)(F)F)c2CC[C@@H]1C [I-9] ?
# output ≤ 6.30

# input Thanks! And COC(=O)N1c2ccc(-c3cnn(CC(C)(C)O)c3)c(OC[C@H]3CCC(=O)N3)c2CC[C@@H]1C [I-468] ?
# output 6.30 to 7.30

# input What about COC(=O)N1c2ccc(-c3cnn(C4CC4)c3)c(OCS(=O)(=O)N(C)C)c2CC[C@@H]1C [I-29] ?
# output 6.30 to 7.30

# input Try this compound next: CCCOc1c(C2CCN(C(=O)NCC)CC2)ccc2c1CC[C@H](C)N2C(C)=O [I-356]
# output 6.30 to 7.30

# input Entry CCCOc1c(-c2nc3ccccc3s2)ccc2c1CC[C@H](C)N2C(C)=O [I-120] please
# output ≤ 6.30

# input Queued: COC(=O)N1c2ccc(-c3cnn(C4CCNCC4)c3)c(Oc3cc(C4CC4)ncn3)c2CC[C@@H]1C [I-531]
# output 6.30 to 7.30

# input And what about the compound CC(=O)N1c2ccc(-c3cnn(C4CCNCC4)c3)c(Oc3cc(N4CCOCC4)ncn3)c2CC[C@@H]1C [I-516] ?
# output 6.30 to 7.30

# input Another compound: CC(=O)N1c2ccc(-c3cnn(C4CC4)c3)c(OCC3CNC3)c2CC[C@@H]1C [I-52]
# output ≤ 6.30

Cited source: patent US10611750B2
